target.or.system: APJ (Homo sapiens)
Construct: expressed in transfected cells; host or cells: CHO (CHO-A10; clone 6 for the cAMP assay)
Sequence (P35414 whole entry): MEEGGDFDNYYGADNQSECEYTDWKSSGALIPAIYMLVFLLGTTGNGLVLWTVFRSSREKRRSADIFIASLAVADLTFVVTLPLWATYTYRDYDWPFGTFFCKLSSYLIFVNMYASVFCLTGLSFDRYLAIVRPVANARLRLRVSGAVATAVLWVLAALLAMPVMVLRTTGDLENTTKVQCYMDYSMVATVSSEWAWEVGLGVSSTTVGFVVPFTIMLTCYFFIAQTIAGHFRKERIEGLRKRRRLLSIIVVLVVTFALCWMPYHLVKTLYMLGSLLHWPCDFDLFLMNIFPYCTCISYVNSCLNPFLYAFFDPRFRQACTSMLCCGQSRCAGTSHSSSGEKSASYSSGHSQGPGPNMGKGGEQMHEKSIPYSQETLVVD
assay.info: Inhibitory activity on forskolin-stimulated cAMP production in CHO-A10 clone 6 cells
Assay type: cell-based
particulars: read-out: EC50
Non-standard residues stand in square brackets, D forms with d. Residues, ends and D or L forms follow the SMILES beside them. Phe(4-Cl) = N[C@@H](Cc1ccc(Cl)cc1)C(=O)O; Cha = N[C@@H](CC1CCCCC1)C(=O)O; Dap = NC[C@H](N)C(=O)O
Overview of reported EC50 across a group of molecules:
reported.property: EC50 (nM)

molecule="CSCC[C@H](NC(=O)[C@@H]1CCCN1C(=O)CNC(=O)[C@H](CCCCN)NC(=O)[C@H](C)NC(=O)[C@H](CO)NC(=O)[C@H](CC(C)C)NC(=O)[C@H](CCCNC(=N)N)NC(=O)[C@@H]1CCCN1C(=O)[C@H](CCCNC(=N)N)NC(=O)[C@@H]1CCC(=O)N1)C(=O)N1CCC[C@H]1C(=O)N[C@@H](Cc1ccccc1)C(=O)O [Compound in Ex. 29]" target_or_system="APJ (Homo sapiens)" reported_property=EC50 observed_measurement=0.22
molecule="CSCC[C@H](NC(=O)[C@@H]1CCCN1C(=O)CNC(=O)[C@H](CCCCN)NC(=O)[C@H](Cc1c[nH]cn1)NC(=O)[C@H](CO)NC(=O)[C@H](CC(C)C)NC(=O)[C@H](CCCNC(=N)N)NC(=O)[C@@H]1CCCN1C(=O)[C@@H](N)CCCNC(=N)N)C(=O)N1CCC[C@H]1C(=O)N[C@@H](Cc1ccc(Cl)cc1)C(=O)O [Compound in Ex. 8]" target_or_system="APJ (Homo sapiens)" reported_property=EC50 observed_measurement=0.34
molecule="CC(=O)NC[C@H](NC(=O)[C@H](CO)NC(=O)[C@H](CC(C)C)NC(=O)[C@H](CCCNC(=N)N)NC(=O)[C@@H]1CCCN1C(=O)[C@@H](N)CCCNC(=N)N)C(=O)N[C@@H](CCCNC(=N)N)C(=O)NCC(=O)N1CCC[C@H]1C(=O)N[C@@H](CC1CCCCC1)C(=O)N1CCC[C@H]1C(=O)N[C@@H](Cc1ccc(Cl)cc1)C(=O)O [Compound in Ex. 66] (H-RPRLS[Dap](Ac)RGP[Cha]P[Phe(4-Cl)]-OH)" target_or_system="APJ (Homo sapiens)" reported_property=EC50 observed_measurement=0.69

Source of measurements: patent US20040116336A1
